Reference source for all entries: the supplement of paper PMC11061612

Test system: COR-L88 (Small Cell Lung Carcinoma)
measurement_protocol: combination Emax (second highest fraction inhibited in the dose matrix, 72 h); higher = more inhibition; extreme values may be limits of the assay
Catalogue of compounds with associated combination Emax
metric: combination Emax

* Cc1c2c(nn1C)CSCc1cc(n(C)n1)CSc1cc(c3ccccc3c1)OCCCc1c(C(=O)O)n(C)c3c-2c(Cl)ccc13 [AZD5991] + C=CCn1c(=O)c2cnc(Nc3ccc(N4CCN(C)CC4)cc3)nc2n1-c1cccc(C(C)(C)O)n1 [AZD1775] (first compound max 1 µM, partner max 1 µM) | 0.744
* C[C@@H](Oc1cc(-c2cnn(C3CCNCC3)c2)cnc1N)c1c(Cl)ccc(F)c1Cl [Crizotinib] + CC1=C(C(=CC=C1)Cl)NC(=O)C2=CN=C(S2)NC3=CC(=NC(=N3)C)N4CCN(CC4)CCO [Dasatinib] (first compound max 10 µM, 7x7, partner max 2 µM) | 0.435
* Cc1cc2ncnn2cc1Nc1ncc2c(n1)n(C1CCOCC1)c(=O)n2C [AZD7648] + C=CCn1c(=O)c2cnc(Nc3ccc(N4CCN(C)CC4)cc3)nc2n1-c1cccc(C(C)(C)O)n1 [AZD1775] (first compound max 10 µM, partner max 1 µM) | 0.545
* Cn1cnc2c(F)c(Nc3ccc(Br)cc3Cl)c(C(=O)NOCCO)cc21 [Selumetinib] + C=CCn1c(=O)c2cnc(Nc3ccc(N4CCN(C)CC4)cc3)nc2n1-c1cccc(C(C)(C)O)n1 [AZD1775] (first compound max 10 µM, partner max 1 µM) | 0.666
* Cc1cc2ncnn2cc1Nc1ncc2c(n1)n(C1CCOCC1)c(=O)n2C [AZD7648] + COc1cc([C@@H]2c3cc4c(cc3[C@@H](O[C@@H]3O[C@@H]5CO[C@@H](C)O[C@H]5[C@H](O)[C@H]3O)[C@H]3COC(=O)[C@H]23)OCO4)cc(OC)c1O [Etoposide] (first compound max 10 µM, 7x7, partner max 10 µM) | 0.36
* Cc1cc2ncnn2cc1Nc1ncc2c(n1)n(C1CCOCC1)c(=O)n2C [AZD7648] + CN(C)CCCOc1ccc(-c2ccc3ncc4c(c3c2)n(C2CCOCC2)c(=O)n4C)cn1 [AZD0156] (first compound max 10 µM, 7x7, partner max 1 µM) | 0.237
* NC1(C(=O)N[C@@H](CCO)c2ccc(Cl)cc2)CCN(c2ncnc3[nH]ccc23)CC1 [Capivasertib] + COc1nnc2ccc(N3CCC(c4ccc(OCCN5CCN(C)C(=O)[C@H]5C)cc4)CC3)nn12 [AZD5153] (first compound max 10 µM, 7x7, partner max 1 µM) | 0.496
